System: weeds
ASSAY PROCEDURE: Glasshouse weed control, HST inhibitors alone and with A22, pre-emergence
Format: in vivo
RUN CONDITIONS: PANMI, 14 DAT, HST inhibitor rate 250 g/ha
This section presents molecules with their documented PANMI Obs, % control score values.
REPORTED ENDPOINT: PANMI Obs, % control score (%)

CC(C)(C)C(=O)Oc1c(-c2c(F)ccc(Cl)c2Cl)c(=O)n(CC(F)F)c2nccnc12
10
CC(C)C(=O)Oc1c(-c2c(Cl)cccc2C(F)(F)F)c(=O)n(CC(F)F)c2nccnc12
60
C#Cn1c(=O)c(-c2c(F)ccc(F)c2Cl)c(O)c2nccnc21
50
O=c1c(-c2c(F)ccc(F)c2Cl)c(O)c2nccnc2n1CC(F)F
50
